biological target: Leukotriene B4 receptor (Homo sapiens, UniProt Q9NPC1+Q15722); assay: Antagonist activity against LTB4 receptor in human U-937 cells incubated for 40 mins by liquid scintillation counting method; format: cell-based
Below: a set of entries, each annotated with reported IC50.
The response must be a number in nM with no trailing unit.

Before answering, review these 5 worked examples.
{"Smiles": "O=C(O)C1=C(C(=O)N2CCC(Cc3ccccc3)CC2)Oc2ccc(OCc3ccccc3)cc2O1", "Measurement Unit": "nM", "IC50": 477}
{"Smiles": "CN(CCc1ccccc1)C(=O)C1=C(C(=O)O)Oc2cc(OCc3ccc4ccccc4c3)ccc2O1", "Measurement Unit": "nM", "IC50": 710}
{"Smiles": "CN(CCc1ccccc1)C(=O)C1=C(C(=O)O)Oc2c(OCc3ccccc3)cccc2O1", "Measurement Unit": "nM", "IC50": 2700}
{"Smiles": "O=C(O)C1=C(C(=O)N2CCC(Cc3ccccc3)CC2)Oc2cccc(OCc3ccccc3)c2O1", "Measurement Unit": "nM", "IC50": 5610}
{"Smiles": "CN(CCc1ccccc1)C(=O)C1=C(C(=O)O)Oc2ccc(OCc3ccccc3)cc2O1", "Measurement Unit": "nM", "IC50": 439}

Consider the record given below.
Reported IC50 for CN(CCc1ccccc1)C(=O)C1=C(C(=O)O)Oc2cc(OCc3ccccc3)ccc2O1 : what is it?
288
